Tested on: OVCAR-4 ovarian
Test: NCI tumour cell line growth inhibition, 48 h
Entries and their TGI values follow.

molecule	system.name	TGI
O=C(O)c1cc2c(cc1S(=O)(=O)O)C1C(C3C2C2(Cl)C(Cl)=C(Cl)C3(Cl)C2(Cl)Cl)C2(Cl)C(Cl)=C(Cl)C1(Cl)C2(Cl)Cl (stereo unspecified)	OVCAR-4 ovarian	> 100 µM

query: If you can, please state the reported TGI value of `CC(=O)Oc1cccc2c1C(=O)C(Br)(Br)CCC2` .
result: 3.67 µM

query: Quick one: TGI of `CCOc1cc2ncc(C#N)c(Nc3ccc(F)c(Cl)c3)c2cc1NC(=O)/C=C/CN(C)C` ?
result: 4.1 µM

query: Recorded TGI for `Cc1cc(S(N)(=O)=O)c(S/C(=N\Nc2ccc([N+](=O)[O-])cc2)c2ccc(Cl)cc2)cc1Cl` , please?
result: 4.48 µM

* * *

Tested on: MDA-MB-435
Assay: NCI tumour cell line growth inhibition, 48 h
Each entry below carries its reported TGI.

molecule	TGI
N#Cc1nsnc1-c1nc(-c2nsnc2C#N)nc(-c2nsnc2C#N)n1	> 100 µM
CCOC(=O)CC[C@@H](NC(=O)c1ccc(NCc2ccc3nc(OC)c(OC)nc3c2)cc1)C(=O)OCC	99.2 µM
Cn1c2c(c3ccccc31)CC(=O)N1CCCCC1C21OCCO1 (centres undefined)	> 100 µM

query: Using the record for `Cc1[nH]n(-c2nc(O)c(C)c(=O)[nH]2)c(=O)c1CCO` , report its TGI.
result: > 100 µM

* * *

System: HOP-62 NSCLC
Assay: NCI tumour cell line growth inhibition, 48 h
Class True: TGI at least 20 µM. Class False: TGI below 20 µM.

A selection of reference data follows.
compound	category.label
CNS(=O)(=O)NN(C)S(=O)(=O)c1ccc(Br)cc1	True
O=C(Nc1ccc2oc(=O)c(C(=O)O)cc2c1)Oc1ccccc1	True
N#Cc1nc(Cc2ccccc2)oc1N	True

Please find the next compound below.
query: Kindly determine if TGI recorded for `CCO[C@H]1C[C@@H](c2ccccc2)[C@]2(C)C[C@H](C(=O)OC)ON2O1` is above or exactly 20 µM.
result: True

* * *

Measured TGI accompanies every entry in the list below.
System: EKVX NSCLC
Assay: NCI tumour cell line growth inhibition, 48 h

Known results for compounds:
compound	recorded.value
CC(=S)NNC(=O)c1ccncc1	> 100 µM
CCOC(=O)c1ccc(Nc2nc3ccc(C(F)(F)F)cc3nc2-c2ccccc2)cc1	> 100 µM
CCCC(=O)N[C@@H](Cc1cc(I)c(O)c(I)c1)C(=O)NCCCNCCCCNCCCNC(=O)[C@@H](N)CCCN=C(N)N	> 100 µM
O[C@]12CCCC[C@H]1CCC2	> 100 µM
Cc1c(C(=O)CC(=O)C(=O)Nc2cccc(C(F)(F)F)c2)[n+](=O)c2ccccc2n1[O-]	20.3 µM
Cc1ccc(C(=O)N/N=C/c2cccc(Oc3ccccc3)c2)cn1	> 100 µM

query: Which TGI reading was recorded for the compound Cn1c2c(c3ccccc31)CC(=O)N1CCCCC1C21OCCO1 (stereo unspecified) ?
result: > 100 µM

query: Which TGI is listed for `O=C(N/N=C/c1cc(Br)cc(Br)c1[O-])c1ccccc1O.O=C(N/N=C/c1cc(Br)cc(Br)c1[O-])c1ccccc1O.[Mn+2]` ?
result: 34.6 µM

query: Quick one: TGI for `COc1ccc(C(=O)c2cc(OC)c(OC)c(OC)c2)cc1O` ?
result: > 100 µM

* * *

Tested on: M14 melanoma
Test: NCI tumour cell line growth inhibition, 48 h; in the data active = GI50 below about 0.43 µM; inactive = the rest
Parameter call: string, one of class 1 (active), class 0 (inactive)

query: Look up the recorded call for `Cc1cc(N/N=C/c2nc(-c3ccccc3)oc2C)c2cc(Cl)ccc2n1` in this test.
result: class 0

query: Answer briefly: the call reported for `CCOC(=O)C(Cc1c[nH]c2cc([N+](=O)[O-])ccc12)(NC(C)=O)C(=O)OCC` in this assay.
result: class 0

query: Hi, sorry to bother you, what did the test record for `Cc1cc(-c2nc3ccc(O)cc3s2)ccc1N` ?
result: class 0

query: Dear all, I need the recorded test outcome for `COc1ccc(C(=O)c2cc(OC)c(OC)c(OC)c2)cc1O` , thank you.
result: class 1

query: # outcome recorded in this test, key = `N#CC(C#N)=CN1CCN(C(=O)c2ccccc2)C1=S`
result: class 0

query: So what was the verdict on `Cc1nc(NC(=S)Nc2ccc(F)cc2)sc1C(=O)NNC(=S)Nc1ccc(F)cc1` in this test?
result: class 0

query: I'd appreciate the recorded outcome for `O=C(Nc1cc(Cl)ccc1O)c1cccc(NC2=C(Cl)C(=O)N(Cc3ccccc3)C2=O)c1` from this test.
result: class 0

* * *

Below: a set of entries, each annotated with reported TGI.
System: TK-10 renal
Assay: NCI tumour cell line growth inhibition, 48 h
Quick note: give the figure in µM, leave out the unit.

mol	TGI, µM
Cc1cc(S(N)(=O)=O)c(S/C(=N\Nc2ccc([N+](=O)[O-])cc2)c2ccc(Cl)cc2)cc1Cl	3.54

Next molecule, TGI to be filled in.
query: Reported TGI, molecule `Cc1nn2c(/C=C3/C(=O)Nc4ccccc43)c(-c3ccc(Cl)cc3)nc2s1` : ____
result: 32.1

* * *

Reported TGI by item:
Test system: MOLT-4 leukemia
Assay: NCI tumour cell line growth inhibition, 48 h
State just the number; it will be interpreted in µM.

molecule	TGI, µM
CC(=O)Oc1cccc2c1C(=O)C(Br)(Br)CCC2	13.8
Nc1ncc(-c2ccc(C(F)(F)F)cc2)c(NC2CCCCCC2)n1	81.5
NC(=O)C1=C(c2ccccc2)c2ccccc2C1=O	14.9

query: Reported TGI, molecule C=C1C(=O)O[C@@H]2C[C@@H](C)[C@@H]3[C@@H](OC4OC(COC(C)=O)C(O)C(O)C4O)CC(=O)[C@@]3(C)C[C@H]12 (stereo not given in full) : ____
result: 7.4

* * *

Test system: K-562 leukemia
Experiment: NCI tumour cell line growth inhibition, 48 h
Measured TGI of individual entries

Here's what some known entries look like.
compound	TGI
CCOC(=O)c1cc2cc(CSc3ccccc3)ccc2oc1=O	> 100 µM
O=C(/C(Cl)=C/c1ccccc1)c1ccccc1	> 26 µM
C=CCN=C1N=C(CC(=O)OCC)CS1	> 100 µM

Lab note: next compound to report on.
query: For the compound COC1=C(C(=O)OC(C)(C)C)[C@]2(C)C(C(=O)OC(C)(C)C)C(OC)=C(C(=O)OC(C)(C)C)[C@]2(C)C1C(=O)OC(C)(C)C (some centres undefined) , what TGI is on record?
result: > 100 µM

* * *

System: SF-268 CNS
Experiment: NCI tumour cell line growth inhibition, 48 h; in the data active = GI50 below about 0.43 µM; inactive = the rest
Give one outcome, nothing more. List: class 1 = active, class 0 = inactive

Use the examples below as a reference point.
CCc1ccc(CCC(=O)Nc2ncc(Cc3ccccc3)s2)o1 class 0
Cc1nn2c(/C=C3/C(=O)Nc4ccccc43)c(-c3ccc(Cl)cc3)nc2s1 class 0
Cn1c2ccccc2c2nnc(N/N=C/c3ccccn3)nc21 class 1
CCOc1cc2ncc(C#N)c(Nc3ccc(F)c(Cl)c3)c2cc1NC(=O)/C=C/CN(C)C class 1
CCOC(=O)C(Cc1c[nH]c2cc([N+](=O)[O-])ccc12)(NC(C)=O)C(=O)OCC class 0

Turning to the following molecule.
query: Hi team, can someone confirm the assay call for `Cc1nc(Nc2ccc(F)c(Cl)c2)sc1C(=O)O` ?
result: class 0

* * *

Entries annotated with measured TGI
Test system: ACHN renal
Test: NCI tumour cell line growth inhibition, 48 h
State the answer as a number, implicitly in µM.

Examples from the recorded data:
molecule	TGI / µM
Cc1ccc(NC(=S)NNC(=O)c2cc(-c3ccccc3)nc3ccccc23)cc1C	67.6
CCOC(=O)C1(Cc2ccccc2)CCN(C(=O)c2ccccc2)C2C1C2(Cl)Cl (stereo not given)	54.8
C#CCSc1cnc2ccccc2c1Sc1c[nH]c2ccccc2c1=O	36.7
CCOC(=O)CC[C@@H](NC(=O)c1ccc(NCc2ccc3nc(OC)c(OC)nc3c2)cc1)C(=O)OCC	58.2
CN(C)CCCn1c2c3ccccc3ccc2c2oc(=O)c3ccccc3c21	15.7
Cc1ccc(NNc2cc(=O)[nH]c(=O)[nH]2)cc1Cl	21.4

query: Entry under review: `O/N=C1\CC2(N3CCOCC3)CCC1(Cc1ccccc1)CC2` . Reported TGI?
result: 63.4

* * *

Below are GI50 values recorded for MDA-MB-435.

CCc1ccc(CCC(=O)Nc2ncc(Cc3ccccc3)s2)o1 0.301 µM
Cc1cc(-c2nc3ccc(O)cc3s2)ccc1N 88.3 µM
COc1ccc(C2=C(c3cn(C)c4ccccc34)C(=O)NC2=O)cc1OC 1.1 µM
O=C(CNC(=O)c1cccc2ccccc12)Nc1ccccc1Oc1ccccc1 0.0425 µM

query: For `CO/N=C1/NC(=O)/C(=C/c2ccc3ncccc3c2)S1` , what is its reported GI50?
result: 15 µM

query: So what does the record say about GI50 for `NC(=NC1CCCCCC1)c1ccc(N2CCN(c3ccc(C(N)=NC4CCCCCC4)cc3)CC2)cc1` ?
result: 7.85 µM

query: Please report the recorded GI50 for `CN(C)CC#Cc1cccc(C(=O)c2cnn(-c3ccc(F)cc3)c2N)c1` .
result: 11.9 µM

query: // GI50 lookup, key: `O=C(Nc1ccncc1)C(=O)c1cn(S(=O)(=O)c2ccccc2F)c2ccccc12`
result: 0.188 µM

query: Entry `c1ccc2[nH]c(-c3ccc(OCCCCCOc4ccc(-c5nc6ccccc6[nH]5)cc4)cc3)nc2c1` has what GI50?
result: 1.63 µM

query: I'd like to know its GI50. The compound in question is `O=C(O)c1ccc(NS(=O)(=O)c2cccc3cccnc23)cc1`
result: > 100 µM

query: Data request, read-out GI50, for `Cc1nn2c(/C=C3/C(=O)Nc4ccc(Cl)cc43)c(-c3ccccc3)nc2s1`
result: 3.24 µM

query: For the compound `Cc1nc(Nc2ccc(F)c(Cl)c2)sc1C(=O)O` , what GI50 is on record?
result: 2.13 µM

query: GI50 for `Nc1ncc(-c2ccc(C(F)(F)F)cc2)c(NC2CCCCCC2)n1` ?
result: 35 µM
